The values you see were collected from the RNAGym collection of RNA variant scans (doi:10.7554/elife.80360).

B1: CPEB3 Ribozyme (parent)
chain: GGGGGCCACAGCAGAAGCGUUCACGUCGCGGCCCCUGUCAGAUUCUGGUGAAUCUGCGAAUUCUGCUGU

Variants of: B1
Assay: self-cleavage, relative activity (ratio to wild type); higher = more cleavage; co-transcriptional
The following variants are listed with their measured self-cleavage values.

A selection of reference data follows.
INSERT INTO results (variantidentifier, parameter, testvalue) VALUES
  ('G5U U21A', 'self-cleavage', 0.158),
  ('C7A U64A', 'self-cleavage', 0.359),
  ('C18U C54A', 'self-cleavage', 0.305),
  ('G2C U21G', 'self-cleavage', 0.0813);

Item: G47C U61A | self-cleavage: 0.97

Recorded result, C6A C45G , self-cleavage: 0.595
